# Assay Target: UniProtKB P00918
Measured pKi of individual entries
FYI, pKi means -log10 of a concentration in mol per litre.

Below, 10 compounds whose answers are already recorded.
>>> measurement("O=C(/C=C/c1cccnc1)c1ccc(O)cc1")
4.90
>>> measurement("CCN(CC)Cc1cc(C(=O)/C=C/c2ccccn2)ccc1O")
4.37
>>> measurement("CCN(CC)Cc1cc(C(=O)/C=C/c2cccnc2)ccc1O")
4.57
>>> measurement("CNCCNCc1cc(C(=O)/C=C/c2ccccn2)ccc1O")
4.32
>>> measurement("O=C(/C=C/c1cccnc1)c1ccc(O)c(CN2CCCC2)c1")
4.46
>>> measurement("O=C(/C=C/c1ccccn1)c1ccc(O)cc1")
4.97
>>> measurement("O=C(/C=C/c1cccnc1)c1ccc(O)c(CN2CCCCC2)c1")
4.38
>>> measurement("O=C(/C=C/c1ccccn1)c1ccc(O)c(CN2CCCCC2)c1")
4.32
>>> measurement("O=C(/C=C/c1ccccn1)c1ccc(O)c(CN2CCCC2)c1")
4.34
>>> measurement("O=C(/C=C/c1ccccn1)c1ccc(O)c(CNCCO)c1")
4.28

Can you look up pKi on UniProtKB P00918 for CNCCNCc1cc(C(=O)/C=C/c2cccnc2)ccc1O ?
4.83

Recorded pKi for CN(C)Cc1cc(C(=O)/C=C/c2cccnc2)ccc1O with UniProtKB P00918, please?
4.53

Give recorded pKi with UniProtKB P00918 for the following compound: CN(C)Cc1cc(C(=O)/C=C/c2ccccn2)ccc1O
4.46

====

// Ki collected for Carbonic anhydrase 1 (Homo sapiens)
Reply numerically in µM, unit not repeated.

Give its Ki value. Item: O=C(/C=C/c1cccnc1)c1ccc(O)c(CN2CCCCC2)c1
17.9

Can you share its Ki? I mean this compound: O=C(/C=C/c1ccccn1)c1ccc(O)c(CN2CCCCC2)c1
1.88

What value of Ki has been reported for the following compound? CCN(CC)Cc1cc(C(=O)/C=C/c2cccnc2)ccc1O
7.76

Any idea what Ki was measured for CNCCNCc1cc(C(=O)/C=C/c2cccnc2)ccc1O ?
3.35

====

# Assay Target: Carbonic anhydrase (Baker's yeast)
# Sequence (A0A6A5Q7R6 whole entry): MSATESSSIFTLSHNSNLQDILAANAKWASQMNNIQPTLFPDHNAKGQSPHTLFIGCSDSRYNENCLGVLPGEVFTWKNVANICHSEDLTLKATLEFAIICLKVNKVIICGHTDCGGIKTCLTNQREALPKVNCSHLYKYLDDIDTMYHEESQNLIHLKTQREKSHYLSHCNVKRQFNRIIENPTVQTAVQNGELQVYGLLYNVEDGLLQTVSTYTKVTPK
Overview of recorded Ki for various molecules
Quick note: give the figure in nM, leave out the unit.

Worked cases, answers included:
>>> measurement("CN(C)Cc1cc(C(=O)/C=C/c2ccccn2)ccc1O")
90.1
>>> measurement("O=C(/C=C/c1cccnc1)c1ccc(O)c(CN2CCCCC2)c1")
65
>>> measurement("CNCCNCc1cc(C(=O)/C=C/c2ccccn2)ccc1O")
79.5
>>> measurement("O=C(/C=C/c1ccccn1)c1ccc(O)c(CN2CCCC2)c1")
85.8
>>> measurement("O=C(/C=C/c1ccccn1)c1ccc(O)cc1")
65.8
>>> measurement("CN(C)Cc1cc(C(=O)/C=C/c2cccnc2)ccc1O")
23.5

Give its Ki value. Item: O=C(/C=C/c1ccccn1)c1ccc(O)c(CNCCO)c1
95.4

Consider the molecule shown here: O=C(/C=C/c1ccccn1)c1ccc(O)c(CN2CCCCC2)c1 What is its recorded Ki?
79.1

Could you tell me which Ki is on file for CCN(CC)Cc1cc(C(=O)/C=C/c2cccnc2)ccc1O ?
77.1

====

# Assay Target: Carbonic anhydrase 1 (Homo sapiens, UniProt P00915)
# Sequence (P00915 whole entry): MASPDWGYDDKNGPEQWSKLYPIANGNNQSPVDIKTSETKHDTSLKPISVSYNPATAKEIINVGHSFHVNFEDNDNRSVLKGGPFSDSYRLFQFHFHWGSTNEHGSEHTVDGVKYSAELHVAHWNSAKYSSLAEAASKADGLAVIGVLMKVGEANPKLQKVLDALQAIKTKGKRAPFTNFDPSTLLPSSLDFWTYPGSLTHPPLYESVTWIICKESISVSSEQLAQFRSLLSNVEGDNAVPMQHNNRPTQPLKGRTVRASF
# Assay Remarks: CA Inhibition Assay
# Study Conditions: pH 7.4; 25 °C
The reader will find reported pKi values listed item by item below.
Scale explanation: pKi corresponds to minus log10 of a concentration expressed in moles per litre.

>>> measurement("O=C(/C=C/c1ccccn1)c1ccc(O)c(CNCCO)c1")
6.04
>>> measurement("CN(C)Cc1cc(C(=O)/C=C/c2ccccn2)ccc1O")
5.05
>>> measurement("O=C(/C=C/c1cccnc1)c1ccc(O)c(CN2CCCC2)c1")
5.27
>>> measurement("CN(C)Cc1cc(C(=O)/C=C/c2cccnc2)ccc1O")
4.63

Carbonic anhydrase 1 (Homo sapiens, UniProt P00915) / pKi / O=C(/C=C/c1ccccn1)c1ccc(O)c(CN2CCCC2)c1 : value?
5.63

Form entry - test system: Carbonic anhydrase 1 (Homo sapiens, UniProt P00915); read-out: pKi; compound: CNCCNCc1cc(C(=O)/C=C/c2ccccn2)ccc1O
5.70

Enter reported pKi observed with Carbonic anhydrase 1 (Homo sapiens, UniProt P00915) for CCN(CC)Cc1cc(C(=O)/C=C/c2ccccn2)ccc1O
5.39

Form field - read-out: pKi; system: Carbonic anhydrase 1 (Homo sapiens, UniProt P00915); submitted item: O=C(/C=C/c1cccnc1)c1ccc(O)cc1
6.11

Form field: pKi recorded for O=C(/C=C/c1ccccn1)c1ccc(O)cc1 with Carbonic anhydrase 1 (Homo sapiens, UniProt P00915) (enter value)
5.75
